Data origin, for the record: a collection of fitness landscapes (doi:10.1016/j.celrep.2020.107928)

B1: Caulobacter ParB omega fusion; a variant is named by its letters at X, in order, B8GW30 (parent)
chain: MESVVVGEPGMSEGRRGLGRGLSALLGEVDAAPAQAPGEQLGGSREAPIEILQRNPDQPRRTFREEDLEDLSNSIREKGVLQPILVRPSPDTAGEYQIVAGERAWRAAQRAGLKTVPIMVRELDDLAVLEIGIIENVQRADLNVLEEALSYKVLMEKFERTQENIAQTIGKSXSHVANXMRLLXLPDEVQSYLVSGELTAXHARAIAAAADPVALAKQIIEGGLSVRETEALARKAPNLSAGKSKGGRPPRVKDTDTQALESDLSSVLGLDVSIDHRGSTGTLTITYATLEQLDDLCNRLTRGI

Variants of: B1
Assay: one-hybrid fitness for binding parS DNA (scaled: cognate 1, non-cognate 0); higher = stronger binding
Conditions: with parS DNA site
Over roughly 81,000 sequences, “one-hybrid fitness for binding parS DNA” has its median near -0.17; the highest 2% begin near 0.51. This excerpt belongs to a sample that is enriched for the highest values.
Property: one-hybrid fitness for binding parS DNA

What value of measured one-hybrid fitness for binding parS DNA is listed for LSLN ?
≤ 0.2

What value of measured one-hybrid fitness for binding parS DNA is listed for RYQS ?
0.912

What value of measured one-hybrid fitness for binding parS DNA is listed for RRPS ?
0.757

What value of measured one-hybrid fitness for binding parS DNA is listed for RRLS ?
0.701

What value of measured one-hybrid fitness for binding parS DNA is listed for RRLN ?
0.396

What value of measured one-hybrid fitness for binding parS DNA is listed for THLD ?
≤ 0.2

What value of measured one-hybrid fitness for binding parS DNA is listed for RYQD ?
≤ 0.2

What value of measured one-hybrid fitness for binding parS DNA is listed for RRPN ?
0.246

What value of measured one-hybrid fitness for binding parS DNA is listed for RYCS ?
0.958

What value of measured one-hybrid fitness for binding parS DNA is listed for LHRT ?
≤ 0.2

What value of measured one-hybrid fitness for binding parS DNA is listed for RYQH ?
≤ 0.2

What value of measured one-hybrid fitness for binding parS DNA is listed for RRLD ?
≤ 0.2
